- system: human A1 adenosine receptor (Homo sapiens, UniProt P30542)
Param label: returns Satisfied when Ki < 4 nM, returns Not satisfied otherwise, including exact equality.

Use the examples below as a reference point.
{"molecule": "CCCn1c(=O)c2[nH]c(C3CCCC3)nc2n(CCSCCO)c1=O", "assigned.category": "Satisfied"}
{"molecule": "CCCn1c(=O)c2[nH]c(C3CCCC3)nc2n(CCCc2ccc(OCC(=O)OCC)cc2)c1=O", "assigned.category": "Not satisfied"}
{"molecule": "CCCn1c(=O)c2[nH]c(C3CCCC3)nc2n(CCC(C)O)c1=O (centres unmarked)", "assigned.category": "Not satisfied"}

Lab log: compare recorded Ki with 4 nM; is it strictly lower for CCCn1c(=O)c2[nH]c(C3CCCC3)nc2n(CC=NO)c1=O ? Satisfied

----------
Below, each of the compounds is paired with its reported pKi value.
Target chain: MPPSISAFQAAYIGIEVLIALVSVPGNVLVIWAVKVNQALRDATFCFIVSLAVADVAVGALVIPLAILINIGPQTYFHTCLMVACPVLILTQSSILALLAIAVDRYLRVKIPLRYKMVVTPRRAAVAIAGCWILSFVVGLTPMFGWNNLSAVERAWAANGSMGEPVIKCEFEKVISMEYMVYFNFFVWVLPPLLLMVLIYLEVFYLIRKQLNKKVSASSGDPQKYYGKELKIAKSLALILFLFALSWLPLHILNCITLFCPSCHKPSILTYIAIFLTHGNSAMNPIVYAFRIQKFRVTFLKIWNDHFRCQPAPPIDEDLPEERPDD
Reminder that pKi means the negative base-10 logarithm of the concentration expressed in mol/L.

Consider the worked cases shown below.
{"smiles.string": "CCCn1c(=O)c2[nH]c(C3CCCC3)nc2n(CCS(=O)(=O)CCO)c1=O", "pKi": 8.21}
{"smiles.string": "CCCn1c(=O)c2[nH]c(C3CCCC3)nc2n(CCCc2cccnc2)c1=O", "pKi": 8.30}
{"smiles.string": "CCCn1c(=O)c2[nH]c(C3CCCC3)nc2n(CCC(=O)N2CCOCC2)c1=O", "pKi": 7.44}
{"smiles.string": "CCCn1c(=O)c2[nH]c(C3CCCC3)nc2n(CCc2ccc(O)cc2)c1=O", "pKi": 8.77}

Which pKi value belongs to CCCn1c(=O)c2[nH]c(C3CCCC3)nc2n(CCCC#N)c1=O ? 8.12
